Source of measurements: ChEMBL document CHEMBL4433239

- testedSystem: Protein deacetylase HDAC6 (Homo sapiens)
- Sequence (Q9UBN7 whole entry): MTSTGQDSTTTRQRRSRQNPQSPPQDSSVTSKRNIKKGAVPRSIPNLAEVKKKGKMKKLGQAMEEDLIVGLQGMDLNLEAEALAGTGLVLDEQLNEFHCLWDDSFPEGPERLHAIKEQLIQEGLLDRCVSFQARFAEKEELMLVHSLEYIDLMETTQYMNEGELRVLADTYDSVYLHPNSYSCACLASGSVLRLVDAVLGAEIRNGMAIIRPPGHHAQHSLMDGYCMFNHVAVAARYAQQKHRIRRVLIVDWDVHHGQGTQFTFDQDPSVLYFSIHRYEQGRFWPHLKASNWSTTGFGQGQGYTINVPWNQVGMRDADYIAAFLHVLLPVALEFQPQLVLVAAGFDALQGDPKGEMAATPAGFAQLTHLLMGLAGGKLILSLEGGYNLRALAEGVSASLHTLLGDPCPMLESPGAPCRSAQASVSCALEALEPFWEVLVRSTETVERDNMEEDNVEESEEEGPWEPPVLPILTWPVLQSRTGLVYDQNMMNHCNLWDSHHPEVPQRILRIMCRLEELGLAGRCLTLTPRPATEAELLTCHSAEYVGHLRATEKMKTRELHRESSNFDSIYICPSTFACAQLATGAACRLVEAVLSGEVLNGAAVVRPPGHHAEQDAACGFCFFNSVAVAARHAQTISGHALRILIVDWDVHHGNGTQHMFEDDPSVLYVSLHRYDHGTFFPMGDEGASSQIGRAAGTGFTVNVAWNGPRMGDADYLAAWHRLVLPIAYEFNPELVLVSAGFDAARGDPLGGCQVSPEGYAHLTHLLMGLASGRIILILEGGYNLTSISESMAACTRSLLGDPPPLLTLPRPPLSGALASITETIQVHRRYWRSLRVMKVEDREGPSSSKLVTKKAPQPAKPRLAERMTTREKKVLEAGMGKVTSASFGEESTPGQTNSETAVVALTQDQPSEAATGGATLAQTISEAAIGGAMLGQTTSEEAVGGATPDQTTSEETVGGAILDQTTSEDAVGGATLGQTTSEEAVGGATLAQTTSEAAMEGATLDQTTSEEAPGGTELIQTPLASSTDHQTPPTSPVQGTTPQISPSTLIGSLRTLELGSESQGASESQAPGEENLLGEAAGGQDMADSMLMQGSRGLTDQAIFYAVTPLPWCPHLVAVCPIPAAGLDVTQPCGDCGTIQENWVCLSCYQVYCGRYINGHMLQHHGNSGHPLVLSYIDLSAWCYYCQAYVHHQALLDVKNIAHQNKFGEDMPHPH
- assayText: Inhibition of human recombinant HDAC 6 by HDAC-Glo luminescent assay
measuredMetric: IC50 (µM)
Expressed in µM, but write only the number.

[ask] I have this compound here, N[C@H](Cc1ccc(Cl)cc1Cl)C(=O)N1Cc2ccccc2C1 , and I need its recorded IC50.
[reply] 30

----------
In this section, each of the molecules is paired with its reported CC50 at 72 h.
- assayText: Cytotoxicity against human HuH7 cells assessed as reduction in cell viability incubated for 3 days by MTT assay
- Type: cell-based, Huh-7
Your answer is read as µM, so omit the unit and give the number.

Observe how each entry below is paired with its result.
1) CCCNNC(=O)/C=C/c1ccccc1; 18
2) Cc1nc2ccccc2n1Cc1ccc(C(=O)NO)cc1; 7.9
3) O=C(NO)c1ccc(-c2ccccc2)cc1; 30
4) O=C(CCCCCCC(=O)Nc1ccccc1)NO [VORINOSTAT]; 0.64
5) CCCNNC(=O)/C=C/c1cccc(S(=O)(=O)Nc2ccccc2)c1; 0.68

[ask] Request the reported CC50 at 72 h associated with CCCNNC(=O)c1ccc(Cn2c3c(c4ccccc42)CN(C)CC3)cc1
[reply] 5.3
